# Experiment Notes: recombinant UMI read abundance after kanamycin selection (control-corrected) (log10(CPM+1)); higher = more efficient recombination; extreme values may be limits of the assay; sequences stand for … in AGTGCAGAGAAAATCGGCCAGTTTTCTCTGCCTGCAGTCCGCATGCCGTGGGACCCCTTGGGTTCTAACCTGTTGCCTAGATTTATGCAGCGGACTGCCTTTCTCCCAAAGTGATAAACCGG…AGGTTGGTTTCACT; site = the 11-nt donor;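 also: IS621 bridge recombinase in Escherichia coli cells against a fixed T5 target plasmid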
Parameter recombinant UMI read abundance (log10): see the listing below.
Please give the numeric answer without any surrounding text.

# example entries with known answers
> print(dat)
                                        seq                       measured.property  value.observed
1  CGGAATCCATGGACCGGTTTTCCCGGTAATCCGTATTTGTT (site CGCCATCCTAA)  recombinant UMI read abundance (log10)               0
2  CTAGTGTCATGGACCGGTTTTCCCGGTAATCCGTATTTGAT (site CTAGTGTCTAT)  recombinant UMI read abundance (log10)            2.25
3  AATAGTGCATGGACCGGTTTTCCCGGTAATCCGTATTTGGT (site AATAGTGCTAC)  recombinant UMI read abundance (log10)            1.23
4  ACTTTATCATGGACCGGTTTTCCCGGTAATCCGTATTTGCA (site ACAGTATCTTG)  recombinant UMI read abundance (log10)            2.35
5  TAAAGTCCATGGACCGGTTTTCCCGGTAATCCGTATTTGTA (site AAAAGTCCTTA)  recombinant UMI read abundance (log10)            2.17
6  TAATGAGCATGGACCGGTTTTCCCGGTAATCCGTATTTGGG (site GAATGAGCTCC)  recombinant UMI read abundance (log10)         0.00249
7  AACTCCTCATGGACCGGTTTTCCCGGTAATCCGTATTTGCC (site GACTCCTCTGG)  recombinant UMI read abundance (log10)            1.42
8  TCTAGAACATGGACCGGTTTTCCCGGTAATCCGTATTTGAG (site CCTAGAACTCT)  recombinant UMI read abundance (log10)          0.0482

Consider now this further sequence.
Kindly note the recorded recombinant UMI read abundance (log10) for CACTTCTCATGGACCGGTTTTCCCGGTAATCCGTATTTGGG (site CGCTTCTCTCC) , which is 0
